Target: alkaline phosphatase (Bos taurus)
Sequence (P19111 20-506 limits assumed): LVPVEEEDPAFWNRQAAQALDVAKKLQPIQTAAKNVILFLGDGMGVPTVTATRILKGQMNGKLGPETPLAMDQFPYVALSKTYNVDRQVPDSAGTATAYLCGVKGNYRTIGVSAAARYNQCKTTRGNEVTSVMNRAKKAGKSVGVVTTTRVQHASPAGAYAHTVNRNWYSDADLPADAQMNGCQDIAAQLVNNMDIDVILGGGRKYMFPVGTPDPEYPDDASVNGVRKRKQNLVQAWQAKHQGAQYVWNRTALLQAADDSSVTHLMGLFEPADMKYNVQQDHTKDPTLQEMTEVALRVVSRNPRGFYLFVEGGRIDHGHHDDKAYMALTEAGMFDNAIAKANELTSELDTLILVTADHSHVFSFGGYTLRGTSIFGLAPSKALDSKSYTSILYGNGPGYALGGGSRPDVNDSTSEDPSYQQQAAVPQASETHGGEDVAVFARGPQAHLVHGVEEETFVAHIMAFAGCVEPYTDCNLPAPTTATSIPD
Experiment: Chemiluminescent signal and signal:background with enhancer polymers (Example XVII)
Format: biochemical
Conditions: polymer DAA TMQ; time 0
A collection of compounds and their measured S/N
PROPERTY_LABEL: S/N

INSERT INTO assay_data (compound, tgt, test_result) VALUES
  ('COC1(c2cccc(OP(=O)(O)O)c2)OOC12C1CC3CC2CC(O)(C3)C1 (single isomer, unassigned) [A-OH-AMPPD]', 'alkaline phosphatase (Bos taurus)', 1.0),
  ('COC1(c2cccc(OP(=O)(O)O)c2)OOC12C1CC3CC2CC(O)(C3)C1 (single isomer, unassigned) [B-OH-AMPPD]', 'alkaline phosphatase (Bos taurus)', 1.0),
  ('COC1(c2cccc(OP(=O)(O)O)c2)OOC12C1CC3CC(C1)CC2C3 (stereo not shown) [AMPPD, reference compound]', 'alkaline phosphatase (Bos taurus)', 1.0),
  ('COC1(c2cccc(OP(=O)(O)O)c2)OOC12C1CC3CC2CC(Cl)(C3)C1 (stereo not shown) [Cl-AMPPD]', 'alkaline phosphatase (Bos taurus)', 1.0);

----------
Target: alkaline phosphatase (Bos taurus)
Assay: Chemiluminescent signal and signal:background with enhancer polymers (Example XVII)
Type: biochemical
Settings: polymer TEQ; time 0 (background, before enzyme)
PROPERTY_LABEL: SIGNAL

INSERT INTO results (compound, test_result) VALUES
  ('COC1(c2cccc(OP(=O)(O)O)c2)OOC12C1CC3CC2CC(Cl)(C3)C1 (stereo not shown)', 67.1),
  ('COC1(c2cccc(OP(=O)(O)O)c2)OOC12C1CC3CC2CC(O)(C3)C1 (single isomer, unassigned) [B-OH-AMPPD]', 142.6),
  ('COC1(c2cccc(OP(=O)(O)O)c2)OOC12C1CC3CC2CC(O)(C3)C1 (single isomer, unassigned) [A-OH-AMPPD]', 348.8),
  ('COC1(c2cccc(OP(=O)(O)O)c2)OOC12C1CC3CC(C1)CC2C3 (stereo not shown) [AMPPD, reference compound]', 217.8);

----------
A collection of molecules and their measured Alkaline phosphatase detection limit (at 2× background)
Target: alkaline phosphatase (Bos taurus)
Experiment: Alkaline phosphatase detection limits, Wilj microtiter plate luminometer (Example XXVI)
Assay type: biochemical
Details: SAPPHIRE, 23 MINUTE INCUBATION
PROPERTY_LABEL: Alkaline phosphatase detection limit (at 2× background) (pM)

INSERT INTO assay_data (molecule, test_result) VALUES
  ('COC1(c2cccc(OP(=O)(O)O)c2)OOC12C1CC3CC2CC(O)(C3)C1 (single isomer, unassigned)', 0.0015),
  ('COC1(c2cccc(OP(=O)(O)O)c2)OOC12C1CC3CC2CC(Cl)(C3)C1 (stereo not shown)', 0.000705),
  ('COC1(c2cccc(OP(=O)(O)O)c2)OOC12C1CC3CC2CC(Br)(C3)C1 (stereo not shown)', 0.00021),
  ('COC1(c2cccc(OP(=O)(O)O)c2)OOC12C1CC3CC(C1)CC2C3 (stereo not shown) [AMPPD, reference compound]', 0.0019);

----------
Molecular target: alkaline phosphatase (Bos taurus)
Experiment: Chemiluminescent signal and signal:background with enhancer polymers (Example XVII)
Type: biochemical
Details: polymer BAEDM; time 0 (background, before enzyme)
A collection of compounds and their measured SIGNAL
PROPERTY_LABEL: SIGNAL

INSERT INTO results (compound, property_label, test_result) VALUES
  ('COC1(c2cccc(OP(=O)(O)O)c2)OOC12C1CC3CC2CC(O)(C3)C1 (single isomer, unassigned) [A-OH-AMPPD]', 'SIGNAL', 95.6),
  ('COC1(c2cccc(OP(=O)(O)O)c2)OOC12C1CC3CC(C1)CC2C3 (stereo not shown) [AMPPD, reference compound]', 'SIGNAL', 217.3),
  ('COC1(c2cccc(OP(=O)(O)O)c2)OOC12C1CC3CC2CC(O)(C3)C1 (single isomer, unassigned) [B-OH-AMPPD]', 'SIGNAL', 161.4),
  ('COC1(c2cccc(OP(=O)(O)O)c2)OOC12C1CC3CC2CC(Cl)(C3)C1 (stereo not shown)', 'SIGNAL', 88.9);
